Reference source for all entries: PubChem BioAssay AID2060892

system: HOP-62 complex spheroids with HUVEC/MSC, viability; assay: Anticancer human tumor HOP-62 cell line growth inhibition [RAS]; conditions: second compound 0.00949 µM; first compound 0.03 µM; active = viability on the fitted dose curve at most 10% of control; inactive = the rest;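 note: spheroids exposed to agents for seven days before readout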
Respond using exactly one of the listed classes: y (active), n (inactive)

Previously resolved entries follow.
Ask | How did this test come out for CC1(C)CCC(Nc2ncc(C(F)(F)F)c(-c3c[nH]c4c(P(C)(C)=O)c(C#N)ccc34)n2)CN1 (centres undefined) + CCn1c(-c2cc(N3CCN(C)CC3)cnc2C(C)OC)c2c3cc(ccc31)-c1csc(n1)CC(NC(=O)C1CC1C)C(=O)N1CCCC(N1)C(=O)OCC(C)(C)C2 ?
Reply | n

Ask | Could you kindly confirm the outcome this assay logged for CC1(C)CCC(Nc2ncc(C(F)(F)F)c(-c3c[nH]c4c(P(C)(C)=O)c(C#N)ccc34)n2)CN1 (centres undefined) + CCn1c(-c2cccnc2C(C)OC)c2c3cc(ccc31)N1CCOC(CC(NC(=O)C(C(C)C)N(C)C(=O)C3(F)CCN(C(=O)C#CC(C)(C)N(C)C)CC3)C(=O)N3CCCC(N3)C(=O)OCC(C)(C)C2)C1 ?
Reply | n

Ask | // return assay outcome for CCc1c2c(nc3ccc(O)cc13)-c1cc3c(c(=O)n1C2)COC(=O)[C@]3(O)CC + CCn1c(-c2cc(N3CCN(C)CC3)cnc2C(C)OC)c2c3cc(ccc31)-c1csc(n1)CC(NC(=O)C1CC1C)C(=O)N1CCCC(N1)C(=O)OCC(C)(C)C2
Reply | n

---
Ask | Which result was noted for this compound in the test: CCc1c2c(nc3ccc(O)cc13)-c1cc3c(c(=O)n1C2)COC(=O)[C@]3(O)CC + CCn1c(-c2cccnc2C(C)OC)c2c3cc(ccc31)N1CCOC(CC(NC(=O)C(C(C)C)N(C)C(=O)C3(F)CCN(C(=O)C#CC(C)(C)N(C)C)CC3)C(=O)N3CCCC(N3)C(=O)OCC(C)(C)C2)C1
Reply | y
